# reported inhibition of growth at 10 µM; entries follow
system: A549; test: Cytotoxicity against human A549 cells assessed as growth inhibition at 10 uM by SRB assay; format: functional; conditions: read-out: GI
READOUT: inhibition of growth at 10 µM (%)

COMPOUND: C[C@@H]1CC[C@H]2[C@@H](C)C(OCC#Cc3ccc(-c4ccc(C#CCOC5O[C@@H]6O[C@@]7(C)CC[C@H]8[C@H](C)CC[C@@H]([C@H]5C)[C@@]68OO7)cc4)cc3)O[C@@H]3O[C@@]4(C)CC[C@@H]1[C@]32OO4 (some centres undefined)
READOUT: inhibition of growth at 10 µM
VALUE: 64

COMPOUND: C[C@@H]1CC[C@H]2[C@@H](C)C(OCCC#Cc3cccc(C#CCCOC4O[C@@H]5O[C@@]6(C)CC[C@H]7[C@H](C)CC[C@@H]([C@H]4C)[C@@]57OO6)c3)O[C@@H]3O[C@@]4(C)CC[C@@H]1[C@]32OO4 (some centres undefined)
READOUT: inhibition of growth at 10 µM
VALUE: 60

COMPOUND: C[C@@H]1CC[C@H]2[C@@H](C)C(OCCC#Cc3ccc(C#CCCOC4O[C@@H]5O[C@@]6(C)CC[C@H]7[C@H](C)CC[C@@H]([C@H]4C)[C@@]57OO6)s3)O[C@@H]3O[C@@]4(C)CC[C@@H]1[C@]32OO4 (some centres undefined)
READOUT: inhibition of growth at 10 µM
VALUE: 77

COMPOUND: C[C@@H]1CC[C@H]2[C@@H](C)C(OCC#Cc3cccc(C#CCOC4O[C@@H]5O[C@@]6(C)CC[C@H]7[C@H](C)CC[C@@H]([C@H]4C)[C@@]57OO6)c3)O[C@@H]3O[C@@]4(C)CC[C@@H]1[C@]32OO4 (some centres undefined)
READOUT: inhibition of growth at 10 µM
VALUE: 65
